# System: matrilysin (MMP-7) (Homo sapiens, UniProt P09237)
# Sequence (P09237 95-267): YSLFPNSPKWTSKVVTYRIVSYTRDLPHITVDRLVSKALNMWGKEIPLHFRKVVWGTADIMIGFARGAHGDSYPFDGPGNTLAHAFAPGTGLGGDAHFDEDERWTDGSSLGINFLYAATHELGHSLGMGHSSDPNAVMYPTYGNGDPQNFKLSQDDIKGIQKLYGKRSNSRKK
Value Kind: pKi
Answers are plain numbers, as −log10 of the molar value.

Need pKi, item CCOC(=O)C(C)C1=CNC(CC(C)C)(C2=CNC(CC(=O)NO)(CC(C)C)C2=O)C1=O (single isomer, unassigned; (-)) [(−)-1a, Bispyrrolinone Hydroxamic Acid]
5.19

The measured values listed here are drawn from patent US6455570B1.
